B1: HDV Ribozyme (parent)
chain: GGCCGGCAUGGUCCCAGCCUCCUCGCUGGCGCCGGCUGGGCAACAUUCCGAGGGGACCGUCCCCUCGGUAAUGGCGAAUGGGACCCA

Variants of: B1
Experiment: self-cleavage, relative activity (ratio to wild type); higher = more cleavage; co-transcriptional
Cut-off 0.09 on self-cleavage, inclusive. At or above means label 1; below means label 0.

- macromolecule_sequence: "GGCCGGCAUGAUCCCAGCCUCCUCGCUGGCGCCGGCUGGGCAACAUUCCGUGGGGACCGUCCCCUCGGUAAUGGCGAAUGGGACCCA"
  label: "label 1"
- macromolecule_sequence: "GGCCGGCAUGGUCCCAGCCUCCUCGCUGGCGCAGCCUGGGCAACAUUCCGAGGGGACCGUCCCCUCGGUAAUGGCGAAUGGGACCCA"
  label: "label 1"
- macromolecule_sequence: "GGCCGGCAUGGUCCCAGCCUCCUCGCUGGCGCCAGCUGGGCAACAUUCCGAGGGGACCGUCCCCUCGGUAAUGGCGAAAGGGACCCA"
  label: "label 0"
- macromolecule_sequence: "GGCCGGCAUGGUCCCAGCCUCCCCGCUGGCGCCGGCUGGGCAACAUUCCGAGGGGACCGUCCCCUCGGUAAUGGCGAAUGGUACCCA"
  label: "label 1"
- macromolecule_sequence: "GGCCGGCAUGGUCCCAGCAUCCUCGCUGGCGCCGGCUGGGCAACAUUCCGAGGGGACCGUACCCUCGGUAAUGGCGAAUGGGACCCA"
  label: "label 1"
- macromolecule_sequence: "GGCCGGCAUAGUCCCAGCCUCCUCGCUGGCGCCGGCUGGGCAACAUUCCGGGGGGACCGUCCCCUCGGUAAUGGCGAAUGGGACCCA"
  label: "label 1"
- macromolecule_sequence: "GGCCGGCAUGGUCCCAGCCUCCUCGUUGGCGCCGGCUGGGCAACAUUCCGAGGGGACCGUCCCCUCGGUAAUGACGAAUGGGACCCA"
  label: "label 1"
- macromolecule_sequence: "GGCCGGCAUGGUCCCAGACUCCUCGCUGGCGCCGGCUGGGCAACAUUCCGAGGGGACCGUCCCCUCGGUAAUGGCGGAUGGGACCCA"
  label: "label 0"
- macromolecule_sequence: "GGCCGGCAUGGUCCCAGCCUCCUCCCUGGCGCCGGCUGGGCAACAUUCCGAGGGGACCGUCCCCUCGGUAAUGGCGAAUGAGACCCA"
  label: "label 0"
- macromolecule_sequence: "GGCCGGCAUGGUCCCAGCCUCCUCGCUGCCGCCGGCUGGGCAACAUUCCGACGGGACCGUCCCCUCGGUAAUGGCGAAUGGGACCCA"
  label: "label 1"
- macromolecule_sequence: "GGCCGGCAUGGUCCCAGACUCCUCGCUGGCGCCGGCUGGGCAACAUUCCGAGGGGACCAUCCCCUCGGUAAUGGCGAAUGGGACCCA"
  label: "label 1"
- macromolecule_sequence: "GGCCGGCAUGGUCCCAGCCUCCUCGCUUGCGCCGGCUGGGCAACAUUCCGAGGGGACGGUCCCCUCGGUAAUGGCGAAUGGGACCCA"
  label: "label 0"
- macromolecule_sequence: "GGCCGGCAUGGUCCCAGCCUCCUCGCUGGCGCCGGCUGGGCAACAUUCCGAGGGGACCGUCCGCUCGGUAAUGGCGAAUGCGACCCA"
  label: "label 1"
- macromolecule_sequence: "GGCCGGCAUGGUCCCAGCCUCCUCGCUAGCGCCGGCUGGGCAACAUUCCGAGGGCACCGUCCCCUCGGUAAUGGCGAAUGGGACCCA"
  label: "label 0"
- macromolecule_sequence: "GGCCGGCAUGGUCCCAGCCUCCUCGCUGGCGCCGGCAGGGCAACAUUCCUAGGGGACCGUCCCCUCGGUAAUGGCGAAUGGGACCCA"
  label: "label 1"
- macromolecule_sequence: "GGCCGGCAUGGUCCCAGCUUCCUCGCUGGCGCCGGCUGGACAACAUUCCGAGGGGACCGUCCCCUCGGUAAUGGCGAAUGGGACCCA"
  label: "label 1"
- macromolecule_sequence: "GGCCGGCAUGGUCCCAGCCUCCUCGCUGGCGCCGGCUGGGCAACAUUUCGAGGGGACCGUGCCCUCGGUAAUGGCGAAUGGGACCCA"
  label: "label 1"
- macromolecule_sequence: "GGCCGGUAUGGUCCCAGCCUCCUCGCUGGCGCCGGCUGGGCAACAUUCCGAGGGGACCGUCCCCUCGGUAAUGGCGAAUGGUACCCA"
  label: "label 0"
- macromolecule_sequence: "GGCCGGCAUGGUCCCACCCUCCUCGCUGGCGCCGGCUGGGCAACAUUCCGAGGGGACCGUCCCCUCGGCAAUGGCGAAUGGGACCCA"
  label: "label 1"
- macromolecule_sequence: "GGCCGGCAUGAACCCAGCCUCCUCGCUGGCGCCGGCUGGGCAACAUUCCGAGGGGACCGUCCCCUCGGUAAUGGCGAAUGGGACCCA"
  label: "label 0"
- macromolecule_sequence: "GGCCGGCAUGGACCCAGCCUCCUCGCUGGCGCCGGCUGGGCAACAUUCCCAGGGGACCGUCCCCUCGGUAAUGGCGAAUGGGACCCA"
  label: "label 1"
